Would you mind telling me the reported melting temperature (Tm) of each entry?
experiment: Melting temperature (Tm) of purified His-tagged CATs; assay type: physicochemical; conditions: purified CAT
Numbers only, in °C.

molecule | reported
CATec3: wild type CAT, type A, Escherichia coli; expressed in strain HSCT2107 (protein, listed as Escherichia coli, SITE (1)..(213) CAT3_ECOLX, Type A, wild type CAT, type A, Escherichia coli; expressed in strain HSCT2107) MNYTKFDVKNWVRREHFEFYRHRLPCGFSLTSKIDITTLKKSLDDSAYKFYPVMIYLIAQAVNQFDELRMAIKDDELIVWDSVDPQFTVFHQETETFSALSCPYSSDIDQFMVNYLSVMERYKSDTKLFPQGVTPENHLNISALPWVNFDSFNLNVANFTDYFAPIITMAKYQQEGDRLLLPLSVQVHHAVCDGFHVARFINRLQELCNSKLK | 80.2
CATec3 F97W Y20F: CATec3 with Y20F mutation in combination with F97W (protein, UniProt P00484 1-213, looked up, variant Y20F F97W) Chloramphenicol …: MNYTKFDVKNWVRREHFEFFRHRLPCGFSLTSKIDITTLKKSLDDSAYKFYPVMIYLIAQAVNQFDELRMAIKDDELIVWDSVDPQFTVFHQETETWSALSCPYSSDIDQFMVNYLSVMERYKSDTKLFPQGVTPENHLNISALPWVNFDSFNLNVANFTDYFAPIITMAKYQQEGDRLLLPLSVQVHHAVCDGFHVARFINRLQELCNSKLK | 85.5

Please examine the following record next.
Req: Need melting temperature (Tm), item CAT_GEO: wild type CAT, type A, Geomicrobium sp. (protein, listed as Geomicrobium sp., SITE (1)..(215) CAT_GEO, Type A) MTFNPITLENWERKEYFNHYLNQQTTFSMTTDIEISSFKAAIKRKGYKFYPTFIYMVTEVINANESFRISFNEEGKLGYWEKLIPLYTVFDDQKQSFSNLWTDSTGNVLTFQEDYDRDVAEYNHIGGLFPKTPIPANTFPISMIPWNSFSGFNLNVGNGGNFLLPIITAGKYYSKGTATYLPVSLQVHHAVCDGYHAASFMNQLQELANTTNEWL
Resp: 43.5

# credit: patent US20220136016A1
